biological target: IGF-1 receptor on the cells of the PathHunter IGF1R Functional Assay (DiscoverX) (UniProt P08069 31-1367); assay: cell-based or functional assay
Sequence (P08069 31-1367): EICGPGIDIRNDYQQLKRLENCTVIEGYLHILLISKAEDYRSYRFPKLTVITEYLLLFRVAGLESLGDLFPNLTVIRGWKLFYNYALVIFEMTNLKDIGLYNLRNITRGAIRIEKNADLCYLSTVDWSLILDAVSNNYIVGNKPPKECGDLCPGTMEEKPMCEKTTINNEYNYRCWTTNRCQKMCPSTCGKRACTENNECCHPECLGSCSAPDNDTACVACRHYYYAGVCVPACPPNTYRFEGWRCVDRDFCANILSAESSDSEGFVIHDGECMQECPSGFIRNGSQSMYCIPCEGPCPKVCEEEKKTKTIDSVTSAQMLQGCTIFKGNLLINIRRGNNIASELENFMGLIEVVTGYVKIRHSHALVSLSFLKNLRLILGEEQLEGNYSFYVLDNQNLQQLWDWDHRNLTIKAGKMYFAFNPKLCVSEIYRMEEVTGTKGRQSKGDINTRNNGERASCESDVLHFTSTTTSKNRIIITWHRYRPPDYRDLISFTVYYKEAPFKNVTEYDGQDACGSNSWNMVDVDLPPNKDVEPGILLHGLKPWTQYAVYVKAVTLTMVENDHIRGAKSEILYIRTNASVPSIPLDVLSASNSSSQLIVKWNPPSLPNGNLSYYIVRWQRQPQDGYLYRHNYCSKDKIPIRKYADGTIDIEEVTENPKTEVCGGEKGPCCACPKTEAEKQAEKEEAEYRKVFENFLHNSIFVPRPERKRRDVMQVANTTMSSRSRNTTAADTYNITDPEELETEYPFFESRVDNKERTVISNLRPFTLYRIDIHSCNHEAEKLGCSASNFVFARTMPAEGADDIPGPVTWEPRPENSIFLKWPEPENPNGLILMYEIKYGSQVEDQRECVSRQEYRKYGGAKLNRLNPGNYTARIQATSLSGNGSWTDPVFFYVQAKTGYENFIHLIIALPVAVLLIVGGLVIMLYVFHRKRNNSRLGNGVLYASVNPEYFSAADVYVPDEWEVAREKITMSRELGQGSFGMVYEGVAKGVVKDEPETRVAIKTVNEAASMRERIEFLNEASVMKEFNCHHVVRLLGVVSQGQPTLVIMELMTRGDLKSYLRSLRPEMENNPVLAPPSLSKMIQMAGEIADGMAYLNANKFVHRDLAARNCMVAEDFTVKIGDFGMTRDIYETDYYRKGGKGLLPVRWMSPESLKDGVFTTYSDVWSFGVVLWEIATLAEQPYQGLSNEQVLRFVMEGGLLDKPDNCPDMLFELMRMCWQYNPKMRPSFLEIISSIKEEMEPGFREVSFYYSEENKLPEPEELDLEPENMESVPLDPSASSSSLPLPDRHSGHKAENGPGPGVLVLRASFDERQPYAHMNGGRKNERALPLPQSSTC
For each entry below, report its Signal intensity (ratio to IGF11-16) at 16.7 nM, PathHunter value.

Consider the reported Signal intensity (ratio to IGF11-16) at 16.7 nM, PathHunter for these binders:
- binder: "FW1-var9-mFR-H3 (antibody, V domains shown) VH: QVQLVQSGAEVKKPGASVKVSCKASGYTFTSYWMHWVRQAPGQGLEWMGETNPSNSVTNYAQKFQGRVTLTVDKSSSTAYMQLSSLTSEDSAVYYCTIGRGRGFAYWGQGTLVTVSA VL: DIQMTQSPSSVSASVGDRVTITCRASQNINFWLSWYQQKPGKAPKLLIYKASNLHTGVPSRFSGSGSGTDFTLTISSLQPEDFATYYCLQGQSYPYTFGGGTKLEIK"
  measurement: "0.7 ratio to human chimeric IGF11-16"
- binder: "FW1-var9-mFR-L1 (antibody, V domains shown) VH: QVQLVQSGAEVKKPGASVKVSCKASGYTFTSYWMHWVRQAPGQGLEWMGETNPSNSVTNYAQKFQGRVTLTVDTSTSTAYMELSSLRSEDTAVYYCTIGRGRGFAYWGQGTLVTVSS VL: DIQMNQSPSSLSASLGDTITITCRASQNINFWLSWYQQKPGKAPKLLIYKASNLHTGVPSRFSGSGSGTDFTLTISSLQPEDFATYYCLQGQSYPYTFGGGTKLEIK"
  measurement: "0.51 ratio to human chimeric IGF11-16"

Task item: Return reported Signal intensity (ratio to IGF11-16) at 16.7 nM, PathHunter; argument: FW1-var9-mFR-H2 (antibody, V domains shown) VH: QVQLVQSGAEVKKPGASVKVSCKASGYTFTSYWMHWVKQRPGQGLEWIGETNPSNSVTNYAQKFQGRVTLTVDTSTSTAYMELSSLRSEDTAVYYCTIGRGRGFAYWGQGTLVTVSS VL: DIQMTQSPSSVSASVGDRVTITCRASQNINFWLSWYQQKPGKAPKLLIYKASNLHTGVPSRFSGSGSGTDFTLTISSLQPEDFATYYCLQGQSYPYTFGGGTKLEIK
Reply: 0.51 ratio to human chimeric IGF11-16
